target: UniProt P0A9C5
Sequence (P0A9C5 2-469): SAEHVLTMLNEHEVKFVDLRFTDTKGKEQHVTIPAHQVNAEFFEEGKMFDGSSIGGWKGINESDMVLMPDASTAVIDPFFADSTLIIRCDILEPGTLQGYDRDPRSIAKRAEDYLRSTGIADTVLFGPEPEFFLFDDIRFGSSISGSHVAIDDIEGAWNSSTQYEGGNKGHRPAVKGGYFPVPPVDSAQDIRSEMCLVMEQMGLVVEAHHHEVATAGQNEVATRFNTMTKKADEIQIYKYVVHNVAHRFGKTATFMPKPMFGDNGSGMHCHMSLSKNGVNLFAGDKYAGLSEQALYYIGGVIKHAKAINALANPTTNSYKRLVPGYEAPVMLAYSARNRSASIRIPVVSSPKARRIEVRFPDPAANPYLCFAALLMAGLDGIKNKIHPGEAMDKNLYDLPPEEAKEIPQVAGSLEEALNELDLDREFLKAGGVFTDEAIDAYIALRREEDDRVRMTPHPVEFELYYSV
Metric name: Ki (µM)
Dear colleague, please return just the value in µM, with no unit written.

Task: Query: Ki; subject: CP(=O)(O)CC[C@H](N)C(=O)O [L-PPT]
Result: 0.4
